tested on: Ataxin-2 (Homo sapiens) (UniProt Q99700)
Sequence (Q99700 whole entry): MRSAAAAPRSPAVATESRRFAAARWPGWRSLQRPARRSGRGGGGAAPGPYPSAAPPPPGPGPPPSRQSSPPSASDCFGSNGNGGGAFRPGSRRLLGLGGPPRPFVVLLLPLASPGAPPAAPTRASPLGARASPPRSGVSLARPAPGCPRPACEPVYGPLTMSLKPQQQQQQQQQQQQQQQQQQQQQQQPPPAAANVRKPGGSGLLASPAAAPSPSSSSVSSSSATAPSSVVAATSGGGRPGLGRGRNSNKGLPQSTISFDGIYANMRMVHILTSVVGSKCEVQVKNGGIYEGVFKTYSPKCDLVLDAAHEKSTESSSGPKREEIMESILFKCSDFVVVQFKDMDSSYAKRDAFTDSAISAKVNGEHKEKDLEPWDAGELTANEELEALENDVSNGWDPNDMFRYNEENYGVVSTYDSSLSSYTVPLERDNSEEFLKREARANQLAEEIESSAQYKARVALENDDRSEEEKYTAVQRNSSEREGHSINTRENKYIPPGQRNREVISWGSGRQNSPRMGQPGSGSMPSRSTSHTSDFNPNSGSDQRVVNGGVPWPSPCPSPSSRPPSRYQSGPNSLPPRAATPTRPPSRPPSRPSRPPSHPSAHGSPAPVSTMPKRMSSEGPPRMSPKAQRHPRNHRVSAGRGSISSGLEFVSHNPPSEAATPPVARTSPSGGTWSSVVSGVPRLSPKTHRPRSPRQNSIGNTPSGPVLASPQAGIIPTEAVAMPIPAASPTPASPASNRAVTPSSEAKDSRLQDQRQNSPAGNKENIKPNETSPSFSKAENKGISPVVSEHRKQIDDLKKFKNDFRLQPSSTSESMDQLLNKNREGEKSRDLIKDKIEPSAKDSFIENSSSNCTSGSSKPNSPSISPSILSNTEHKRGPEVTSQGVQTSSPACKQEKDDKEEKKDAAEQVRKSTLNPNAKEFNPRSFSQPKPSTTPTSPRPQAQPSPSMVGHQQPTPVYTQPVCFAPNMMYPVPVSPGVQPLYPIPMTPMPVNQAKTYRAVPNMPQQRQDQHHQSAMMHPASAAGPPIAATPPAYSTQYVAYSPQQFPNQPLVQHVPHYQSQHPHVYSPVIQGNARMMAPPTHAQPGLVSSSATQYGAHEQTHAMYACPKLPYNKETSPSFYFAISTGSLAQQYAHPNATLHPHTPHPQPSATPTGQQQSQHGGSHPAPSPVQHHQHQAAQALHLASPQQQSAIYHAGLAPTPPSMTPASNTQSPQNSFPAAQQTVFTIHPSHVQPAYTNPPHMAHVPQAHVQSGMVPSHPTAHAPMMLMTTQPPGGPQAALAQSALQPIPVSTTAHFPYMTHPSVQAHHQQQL
experimental details: qHTS for Inhibitors of ATXN expression.
Type: functional
The campaign covered roughly 400,000 compounds. About 2,100 (0.53%) were called active. Another 14% or so got no clear call; they are omitted. Shown is part of a subset that was picked to be rich in actives.
quantity kind: Potency

// known answers, use as guide
O=C(NCCCN1CCN(c2ccc(F)cc2)CC1)c1ccc2nc(Cc3ccccc3)oc2c1	20 µM (active)
Cc1cc2c(cc1C)NC(CC(=O)Nc1ccccc1)C(=O)N2 (stereo unspecified)	inactive
CCOC(=O)C1(C)C=C(Nc2ccc(NC(C)=O)cc2)C(=O)N1c1ccc(NC(C)=O)cc1 (stereo unspecified)	inactive
O=C(O)c1ccc(CP(=O)(c2ccccc2)c2ccccc2)cc1	inactive
COc1cc(OC)c2c(OC)cccc2n1	inactive
C=C(C)CNC(=O)c1ccc2nc(Cc3ccc(OC)cc3)oc2c1	inactive

Entry CCSc1ccccc1C(=O)Nc1nc(O)c2ccccc2n1 ; Potency = inactive

Kindly note the recorded Potency for O=C(CCl)/N=c1\sccn1Cc1ccccc1Cl , which is 31.6 µM (active)

# compound O=C(Oc1ccc(OC(=O)C2CCC2)cc1)C1CCC1 ; its Potency = inactive

The measured Potency associated with O=C(NCCO)c1ccc2nc(Cc3cccc(Cl)c3)oc2c1 reads inactive

Given item COc1ccc(C(=O)c2oc3ccc(OC)cc3c2NC(C)=O)cc1 , the value recorded as its Potency is inactive

---

tested on: Ataxin-2 (Homo sapiens) (UniProt Q99700)
experimental details: qHTS for Inhibitors of ATXN expression.
Assay type: functional
In all, about 400,000 compounds went through this assay and about 2,100 (0.53%) were called active. Roughly 14% stayed inconclusive and do not appear here. How the calls were made is not given here. Many of the other results were omitted from the sample, so actives are more common in it than they were.
Write down the outcome that applies. Available outcomes: Y = active, N = inactive

Solved entries (count: 9):
Cc1ccc2nc(N3CCN(C=O)CC3)nc(-c3ccccc3)c2c1	N
CCOC(=O)c1c(CSC(=N)N)n(C)c2cc(Br)c(OC(C)=O)cc12	Y
Cc1cccn2c(=O)c3cc(C(=O)NCC4CCCO4)c(=N)n(Cc4cccnc4)c3nc12 (stereo not given)	N
Cc1ccc2nc3c(cc(C#N)c(=O)n3-c3nccs3)c(=O)n2c1	N
COc1ccc(-n2nc(C#N)c(Cl)cc2=O)cc1	Y
O=C(C1CCCCC1)N1CCC(O)(c2ccc(Cl)cc2)CC1	N
Cc1ccc([C@H]2C[C@@H](O)[C@H](n3cc(-c4ccc(F)cc4)nn3)CN2C(=O)C2CCCCC2)cc1	Y
COc1ccc(N2C(=O)CC(NNc3ncc(Cl)cc3Cl)C2=O)cc1 (stereo not given)	N
CCOc1ccc(CCNC(=O)Cn2ncn3nc(-c4ccc(OC)cc4)cc3c2=O)cc1OCC	N

We now examine a further compound.
Given CC12CCC(=O)N1C(C(=O)N1CCN(S(=O)(=O)c3ccc(Br)cc3Cl)CC1)CS2 (stereo not given) , state the outcome it received in this test. N

---

tested on: Ataxin-2 (Homo sapiens)
experimental details: qHTS for Inhibitors of ATXN expression.
Type: functional
The campaign covered roughly 400,000 compounds. About 2,100 (0.53%) were called active. Another 14% or so got no clear call; they are omitted. No rule for the calls is given here. The full list was thinned out, with actives kept by preference.
I would appreciate it if you answered using one of these outcomes: active, inactive

# example entries with known answers
O=C(NNC(=O)NC1CCCCC1)NC1CCCCC1	inactive
CCCCCC(=O)N1C[C@@H](n2cc(-c3ccc(F)cc3)nn2)[C@H](O)C[C@@H]1c1ccc(Cl)cc1	active
CC[C@]12c3[nH]c4ccc(Cl)cc4c3CCN1C(=O)[C@@H](CC(=O)NC/C=C(\C)CCC=C(C)C)C[C@@H]2C(=O)N1CCN(C(=O)C2CC2)CC1	active
COc1ccc([C@H]2C[C@H](O)[C@@H](n3cc(-c4ccc(F)cc4)nn3)CN2CC2CCCCC2)cc1	active
CCCCCCN1C[C@H](n2cc(-c3ccc(F)cc3)nn2)[C@@H](O)C[C@@H]1c1ccc(Cl)cc1	active

Hello, I am checking results. What call was entered for C[C@H]1CCC[C@]2(C)C[C@H]3OC(=O)C(CN4CCCCCC4)[C@H]3C=C12 (some centres undefined) ? active

Which outcome was entered for the compound Cc1cccn2c(=O)c3cc(C(=O)NCc4cccnc4)c(=N)n(C(C)C)c3nc12 in this test? inactive

Assay result, entry CCCC(=O)NCn1nnc(-c2ccc(Cl)cc2)n1 — outcome? inactive

Fill in: this test's call for O[C@H]1C[C@H](c2ccc(Cl)cc2)N(Cc2cccs2)C[C@@H]1n1cc(-c2ccc(F)cc2)nn1 is ___ active

---

tested on: Ataxin-2 (Homo sapiens)
experimental details: qHTS for Inhibitors of ATXN expression.
Type: functional
Hit rate of the full screen: of about 400,000 compounds, about 2,100 (0.53%) were called active. Inconclusive results (about 14%) are left out. What follows is part of a selection rich in actives, with near analogues and random picks from the rest.
quantity kind: Potency

COc1ccc(-c2noc(CSc3nnc(Cc4ccccc4)n3-c3ccc(F)cc3)n2)cc1	39.8 µM (active)
N#Cc1c(N)n(Cc2ccccc2)c(=O)c2cc([N+](=O)[O-])ccc12	inactive
O=c1c2cc([N+](=O)[O-])cc([N+](=O)[O-])c2[nH]n1-c1ccccc1	22.4 µM (active)
Nc1ccc2c3c(cccc13)C(=O)N(c1ccccc1)C2=O	inactive
O=C(N/N=C/c1ccc(N2CCOCC2)cc1)c1ccccc1OCCOc1ccccc1	inactive

Item OCCn1ccc(-c2ccccc2OCc2ccc(F)cc2)n1 ; assay system Ataxin-2 (Homo sapiens); Potency reported as inactive

Simply: Cc1csc(NC(=O)c2cc(O)nc3ccc(S(=O)(=O)N4CCOCC4)cc23)n1 , Ataxin-2 (Homo sapiens), Potency = inactive

GET /values?item= COc1cc(Cn2c(N)c(C#N)c3nc4ccccc4nc32)cc(OC)c1 &system= Ataxin-2 (Homo sapiens) returns Potency: inactive

Recorded Potency for Cc1[nH]c2ccccc2c1/C=N/Nc1ccc([N+](=O)[O-])cc1 on Ataxin-2 (Homo sapiens) was inactive

Test item O=S(=O)(c1ccc(Cl)c(C(F)(F)F)c1)N1CCN(c2ccccn2)CC1 ; Ataxin-2 (Homo sapiens); reported Potency was inactive

I looked up COc1ccc(OC)c(-c2noc(CSc3nnc(Cc4ccccc4)n3-c3cccc(C)c3)n2)c1 and its Potency for Ataxin-2 (Homo sapiens) was 22.4 µM (active)

---

tested on: Ataxin-2 (Homo sapiens) (UniProt Q99700)
experimental details: qHTS for Inhibitors of ATXN expression.
Assay type: functional
Out of some 400,000 compounds screened, about 2,100 (0.53%) were called active. Inconclusive results (about 14%) are left out. How the calls were made is not given here. The full list was thinned out, with actives kept by preference.
Respond using exactly one of the listed classes: yes (active), no (inactive)

CC1CC1C(=O)OCC(=O)c1c(N)n(C)c(=O)n(C)c1=O (stereo unspecified)	no
CN1c2ccccc2Oc2nnc(Cl)cc21	no
COCCN=C(S)N1CCN(c2cccc(C(F)(F)F)c2)CC1	no

What is the recorded call for this molecule in the test? CC(=O)Nc1ccc(C2=NN(c3ccccc3)C(c3ccccc3)C2)cc1 (stereo unspecified) no

Lab log entry: O=C(C[C@H]1C/C=C\C[C@@H](NC(=O)OCC2c3ccccc3-c3ccccc32)C(=O)O[C@@H](c2ccccc2)CNC1=O)N[C@H](CO)Cc1ccccc1 — outcome as called in the assay? yes

Which outcome was assigned to C=CCN1C(=O)/C(=C/c2ccc(O)cc2)S/C1=N/c1nccs1 in this test? no

In this assay, the call recorded for CC(=O)Nc1sc(/C(C#N)=C\c2cccc(Cl)c2)nc1-c1ccc(C)cc1 was what? no

---

tested on: Ataxin-2 (Homo sapiens) (UniProt Q99700)
experimental details: qHTS for Inhibitors of ATXN expression.
Type: functional
Among all 400,000 compounds or so, about 2,100 (0.53%) were called active. Another 14% or so got no clear call; they are omitted. No rule for the calls is given here. The full list was thinned out, with actives kept by preference.
Mark one answer only. Choices: active, inactive

Here are 3 compounds together with their reported answers.
COc1cc(/C=C/C(=O)OCC(=O)NC2CCS(=O)(=O)C2)ccc1OC(F)F (configuration not stated)	inactive
COc1ccc(-c2ccc3[nH]c4c(c3c2)CCN2C[C@@H]([C@H](C)O)[C@@H](N(C)C(=O)Nc3cc(Cl)cc(Cl)c3)C[C@@H]42)cc1	active
CC1=C(C(=O)NCCCOC(C)C)C2(CCC(C)CC2)OC1=O (configuration not stated)	inactive

Which outcome did this test record for the compound O=C(CN1CCN(C(=O)c2c(F)cccc2F)CC1)Nc1ccccc1C(F)(F)F ? inactive

Status in this test for COc1cccc2sc3cc(NCCCN4CCOCC4)ccc3c(=O)c12 ? inactive

Tell me the assay call for O=C(CSc1ncccn1)N/N=C/c1ccccc1[N+](=O)[O-] please. inactive

Any idea what this test logged for Brc1ccccc1OCCCN1CCCC1 ? inactive

Could you please tell me the result logged for COc1ccccc1NC(=O)CN1CCN(CC(=O)Nc2ccc(Cl)c(C(F)(F)F)c2)CC1 in this assay? active
